Test system: Sam68 (KHDRBS1)
Experiment: Sam68 small-molecule binders, primary screen, biochemical, small-molecule microarray, 635 nm fluorescence (AID 1125);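 further: score merges 667 nm channel intensity with signal to noise over triplicate slides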
Conditions: small-molecule microarray binding, higher = more signal
Cut-off 0.5 on composite z-score, inclusive. At or above means met; below means not met.

Look over these answered cases.
> print(dat)
                                   molecule     assay.target    class
1  COc1ccc(COC(=O)NN=C2C[C@@H](O)[C@@H](O)[C@@H]3[C@@H]4C(=O)N([C@@H](C)c5ccccc5)C(=O)[C@@H]4CC[C@H]23)cc1  Sam68 (KHDRBS1)  not met
2  O=C1[C@H]2[C@H]3[C@H](O)[C@H](O)CC(=NOCc4ccccc4)[C@H]3CC[C@H]2C(=O)N1C1CCCCC1  Sam68 (KHDRBS1)      met
3  CC(C)CON=C1[C@H]2CCn3c(=O)n(C)c(=O)n3[C@H]2[C@H](O)[C@@H]2O[C@H]12  Sam68 (KHDRBS1)  not met
4  COC(=O)[C@H](C)NC(=O)CCC1CC(OC(=O)NCCc2ccc(F)cc2)CC2(CCCC(COC(=O)NCc3ccccc3)O2)O1 (stereo not given in full)  Sam68 (KHDRBS1)      met
5  COC(=O)[C@H](Cc1ccccc1)NC(=O)[C@@H](C)CO  Sam68 (KHDRBS1)  not met

Assess whether reported composite z-score for `CC(C)=CCCC(C)=CCON=C1C[C@@H](O)[C@@H](O)[C@@H]2[C@@H]3C(=O)N([C@@H](C)c4ccccc4)C(=O)[C@@H]3CC[C@@H]12` sits at 0.5 or higher.
not met

Assess whether reported composite z-score for `CO[C@H]1COC(=O)[C@H](C)COC(=O)[C@H](C)NC(=O)CC=C[C@H]1C` sits at 0.5 or higher.
met
